Test Protocol: Stability in human plasma
Assay type: in vitro ADME
Experimental Conditions: 5 µM, incubation at 37°C, LC-MS/MS detection, read-out: t½

| Smiles Input | half-life at 5 µM |
| --- | --- |
| O=C(Nc1ccc(F)cc1)c1cnc(SCc2cc(OC(F)(F)F)ccc2B(O)O)nc1 | 11.6 h |

---

Test Protocol: Stability in human liver microsomes (NADPH-dependent)
Assay type: in vitro ADME
Experimental Conditions: 37°C, 2 mM NADPH, pH 7.4, first-order decay model, read-out: t½ (Half-life)
Quantity Measured: half-life (h)

| Smiles Input | Scale Unit | Numeric Result |
| --- | --- | --- |
| O=C(Nc1ccc(F)cc1)c1cnc(SCc2cc(OC(F)(F)F)ccc2B(O)O)nc1 | h | 5.42 |

---

Test Target: CXCR2 (Homo sapiens, UniProt P25025)
Sequence (P25025 whole entry): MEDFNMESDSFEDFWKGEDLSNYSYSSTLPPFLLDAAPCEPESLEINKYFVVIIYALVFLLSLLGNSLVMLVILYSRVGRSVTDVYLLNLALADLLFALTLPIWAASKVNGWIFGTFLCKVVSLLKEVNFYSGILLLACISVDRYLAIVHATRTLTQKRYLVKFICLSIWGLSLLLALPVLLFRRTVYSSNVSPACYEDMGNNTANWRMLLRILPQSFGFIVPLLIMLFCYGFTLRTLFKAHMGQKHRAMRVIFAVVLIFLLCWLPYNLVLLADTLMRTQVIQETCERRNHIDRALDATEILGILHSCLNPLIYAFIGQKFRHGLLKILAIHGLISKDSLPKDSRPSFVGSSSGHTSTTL
Test Protocol: Inhibition of CXCL8-mediated intracellular calcium release, RBL cells stably transfected with CXCR2
Experimental Conditions: CXCL8 25 nM, mean ± SE, n = 4
pIC50: −log10 of the molar value.

| Compound | pIC50 |
| --- | --- |
| O=C(Nc1ccc(F)cc1)c1cnc(SCc2cc(OC(F)(F)F)ccc2B(O)O)nc1 [SX-682] | 7.70 |
